# ASSAYED_TARGET: T1, recombinant monkey TfR (r monkey TfR: Sino Biological Inc.) (cynomolgus monkey (Macaca fascicularis), UniProt Q5RDH6 89-760 (Pongo abelii entry))
# T1 construct: Bought product; also called r monkey TfR-ECD (Histag); cynomolgus monkey TfR; not shown: histidine tag attached to the N-terminus
# T1 chain: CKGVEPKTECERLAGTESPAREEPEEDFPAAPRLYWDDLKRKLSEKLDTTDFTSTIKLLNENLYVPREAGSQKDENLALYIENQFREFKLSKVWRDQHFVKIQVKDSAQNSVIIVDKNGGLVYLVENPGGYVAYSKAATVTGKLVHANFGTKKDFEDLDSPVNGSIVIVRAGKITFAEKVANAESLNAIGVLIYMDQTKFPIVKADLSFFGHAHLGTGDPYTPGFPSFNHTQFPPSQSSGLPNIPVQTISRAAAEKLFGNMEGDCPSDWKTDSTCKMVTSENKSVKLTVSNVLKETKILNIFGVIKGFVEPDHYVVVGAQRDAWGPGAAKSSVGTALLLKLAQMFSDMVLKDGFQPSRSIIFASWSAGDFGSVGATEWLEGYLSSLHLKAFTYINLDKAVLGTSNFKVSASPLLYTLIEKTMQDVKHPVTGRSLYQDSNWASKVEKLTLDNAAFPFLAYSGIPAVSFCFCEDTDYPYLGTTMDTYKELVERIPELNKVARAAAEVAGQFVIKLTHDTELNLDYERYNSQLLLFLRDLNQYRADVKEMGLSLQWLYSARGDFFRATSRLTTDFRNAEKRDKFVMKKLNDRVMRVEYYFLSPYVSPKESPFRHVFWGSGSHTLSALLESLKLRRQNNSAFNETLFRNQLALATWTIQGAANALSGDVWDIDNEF
# PROTOCOL_DETAILS: BLI (Octet RED96), His-tagged TfR ECD loaded on Ni-NTA sensor, antibody as analyte
ENDPOINT_LABEL: pKd
Give bare numbers, as −log10 of the molar value.

response.value for anti-hTfR antibody No. 6 (antibody, V domains shown, Mouse hybridoma antibody purified on Protein G; also called mouse anti-hTfR antibody No. 6; product of Clone 6 line) VH: EVQLQESGPGLVAPSQSLSITCSVSGFSLSTYGVYWVRQPPGKGLEWLGIIWGDGSTNYHSALISRLTISKDNSKSQVFLKLNSLQTADTATYYCAKPDDVWGAGTTVTVSS VL: DIVLTQTPSSLSASLGERVSLTCRASQEISGYLSWLQQKPDGTIKRLIYAASTLDSGVPKRFSGSRSGSDYSLTISSLESEDFADYYCLQYSSYPRTFGGGTKLEIK (field: pKd) = 9.91
